Test system: CAOV3
PROTOCOL_TEXT: drug sensitivity score (DSS) from 5-point dose-response viability curve (DSS (area-under-curve based score)); higher = more sensitive (stronger growth inhibition or killing); extreme values may be limits of the assay
RECORDED_CONDITIONS: exposure time: 72 h; concentration range: 5 concentrations over 10,000-fold range
Classification field: condition met = drug sensitivity score at or over 2; condition not met = drug sensitivity score under 2.

A selection of reference data follows.
>>> qualitative_label("N#CC(c1ccnc(OCc2ccc(CN3CCOCC3)cc2)n1)c1nc2ccccc2s1 (stereo not given)")
"condition not met"
>>> qualitative_label("CC1(COc2ccc3c(c2)ncn3-c2ccc3cccc(N4CCC(N)CC4)c3n2)COC1")
"condition met"
>>> qualitative_label("O=C(O)c1ccc(O)c2ncccc12")
"condition not met"

Prompt: Decide: is the reported value of drug sensitivity score for N.N.[Cl][Pt][Cl] [Cisplatin] equal to or greater than 2?
Completion: condition met

Prompt: Decide: is the reported value of drug sensitivity score for Cc1ncc(Cl)cc1NCc1ccc(C(=O)N[C@@H](CC2CCCC2)C(=O)NC2CC2)s1 equal to or greater than 2?
Completion: condition not met

----------
Property: drug sensitivity score; scope: individual compounds
Test system: COV318
PROTOCOL_TEXT: drug sensitivity score (DSS) from 5-point dose-response viability curve (DSS (area-under-curve based score)); higher = more sensitive (stronger growth inhibition or killing); extreme values may be limits of the assay
RECORDED_CONDITIONS: exposure time: 72 h; concentration range: 5 concentrations over 10,000-fold range
The reply should be a number, written without any unit.

>>> observed_measurement("C[C@H]1O[C@@H](O[C@H]2[C@@H](O)C[C@H](O[C@H]3[C@@H](O)C[C@H](O[C@H]4CC[C@@]5(C)[C@H](CC[C@@H]6[C@@H]5C[C@@H](O)[C@]5(C)[C@@H](C7=CC(=O)OC7)CC[C@]65O)C4)O[C@@H]3C)O[C@@H]2C)C[C@H](O)[C@@H]1O")
11.9
>>> observed_measurement("COc1cc2c(Nc3ccc(Cl)c(Cl)c3F)ncnc2cc1OC[C@@H]1C[C@@H]2CN(C)C[C@@H]2C1")
0
>>> observed_measurement("Cc1sc2c(c1C)C(c1ccc(Cl)cc1)=N[C@@H](CC(=O)Nc1ccc(O)cc1)c1nnc(C)n1-2")
1.7
>>> observed_measurement("Nc1nc(N)c2nc(-c3cccc(O)c3)c(-c3cccc(O)c3)nc2n1")
0
>>> observed_measurement("C1=N/C2=N/c3ccc(OCCN4CCCC4)c(c3)COC/C=C/COCc3cccc(c3)C(=C1)N2")
5.3

The measured drug sensitivity score associated with O=C(CCCCCCC(=O)Nc1ccccc1)NO reads 4.3

The measured drug sensitivity score associated with CN(C)Cc1c(C(=O)NCCOc2ccc(C(=O)NO)cc2)oc2ccccc12 reads 10.1

----------
System: OVCAR5
PROTOCOL_TEXT: drug sensitivity score (DSS) from 5-point dose-response viability curve (DSS (area-under-curve based score)); higher = more sensitive (stronger growth inhibition or killing); extreme values may be limits of the assay
RECORDED_CONDITIONS: exposure time: 72 h; concentration range: 5 concentrations over 10,000-fold range
Property: drug sensitivity score; scope: individual molecules
The reply should be a number, written without any unit.

Some entries whose results are on file:
>>> observed_measurement("Cc1ccc(NS(=O)(=O)c2cccc(C#N)c2)c2[nH]cc(C#N)c12")
3.3
>>> observed_measurement("N#CCNC(=O)c1ccc(-c2ccnc(Nc3ccc(N4CCOCC4)cc3)n2)cc1")
3.3
>>> observed_measurement("O=c1[nH]c(=O)n([C@H]2C[C@H](O)[C@@H](CO)O2)cc1F")
8.1
>>> observed_measurement("Cn1cc(C2=Nc3cc(NC(=O)C(N)C4CCCCC4)cc4c3C2=CNNC4=O)cn1 (stereo not given)")
6.4
>>> observed_measurement("COc1cc(Nc2ncc(F)c(Nc3ccc4c(n3)N(COP(=O)(O)O)C(=O)C(C)(C)O4)n2)cc(OC)c1OC")
3.7
>>> observed_measurement("O=c1[nH]cc(F)c(=O)[nH]1")
2.7
>>> observed_measurement("C=CC(=O)Nc1cc2c(Nc3ccc(F)c(Cl)c3)ncnc2cc1OCCCN1CCOCC1")
8
>>> observed_measurement("CC/C(=C(\\c1ccccc1)c1ccc(OCCN(C)C)cc1)c1ccccc1")
3.9
>>> observed_measurement("O=C(Nc1c[nH]nc1-c1nc2ccc(CN3CCOCC3)cc2[nH]1)NC1CC1")
4.6

Attention now shifts to the item below.
The measured drug sensitivity score associated with Cc1cn(-c2cc(NC(=O)c3ccc(C)c(Nc4nccc(-c5cccnc5)n4)c3)cc(C(F)(F)F)c2)cn1 reads 2
